A collection of molecules and their measured pest or weed control at 100 µg/mL
- System: Puccinia triticina
- measurementDescription: Fungicidal activity: Wheat Brown Rust (PUCCRT)
- Assay type: in vivo
- appliedConditions: 24 h, High Volume (100 ppm), 1 Day Protectant, read-out: PUCCRT 1 DP disease control

I'd like to know its pest or weed control at 100 µg/mL. The molecule in question is COc1ccnc(C(=O)N[C@H]2COC[C@H](CC3CC3)[C@@H](Cc3ccccc3)[C@H](C)OC2=O)c1O
> 70%

Consider next the molecule COc1ccnc(C(=O)N[C@H]2COC[C@H](Cc3ccccc3)[C@@H](COCC(C)C)[C@H](C)OC2=O)c1OCOC(C)=O in the same way.
> 70%

Similarly, COc1ccnc(C(=O)N[C@H]2COC[C@H](Cc3ccccc3)[C@@H](Cc3ccccc3)[C@H](C)OC2=O)c1OCOC(C)=O ?
> 70%

Repeat with COc1ccnc(C(=O)N[C@H]2COC[C@@H]3CCCC[C@H]3[C@@H](C)OC2=O)c1OCOC(C)=O
< 70%

Try this molecule too: COc1ccnc(C(=O)N[C@@H]2COC[C@@H](Cc3ccccc3)[C@H](COCC(C)C)[C@@H](C)OC2=O)c1O
< 70%

Others:
Entry COc1ccnc(C(=O)N[C@H]2COC[C@H](CC3CCCC3)[C@@H](CC3CCCC3)[C@H](C)OC2=O)c1O : reported pest or weed control at 100 µg/mL = ?
> 70%

Continue with CCCC[C@@H]1[C@@H](Cc2ccccc2)COC[C@H](NC(=O)c2nccc(OC)c2O)C(=O)O[C@H]1C
< 70%

* * *

- Test system: Mycosphaerella graminicola; Anamorph: Septoria tritici
- measurementDescription: Fungicidal activity: Leaf Blotch of Wheat (SEPTTR)
- Format: in vivo
- appliedConditions: Zymoseptoria tritici, 24 h; High Volume (100 ppm), 1 Day Protectant, wheat leaf blotch; read-out: SEPTTR 1 DP disease control
# pest or weed control at 100 µg/mL values compiled below

Please look up its pest or weed control at 100 µg/mL: CCC[C@H]1COC[C@H](NC(=O)c2nccc(OC)c2O)C(=O)O[C@@H](C)[C@@H]1c1ccccc1
> 70%

Now the same for COc1ccnc(C(=O)N[C@H]2COC[C@H](Cc3ccccc3)[C@@H](Cc3ccccc3)[C@@H](C)OC2=O)c1O
> 70%

Note, next up: COc1ccnc(C(=O)N[C@H]2COC[C@H](Cc3ccc(Cl)cc3)[C@@H](Cc3ccc(OC(F)(F)F)cc3)[C@H](C)OC2=O)c1O
< 70%

Item: COc1ccnc(C(=O)N[C@H]2COC[C@@H]3CCCC[C@H]3[C@H](C)OC2=O)c1OCOC(C)=O
< 70%

Read the next record carefully.
Could you share which pest or weed control at 100 µg/mL value was measured for C=C[C@@H]1[C@@H](Cc2ccccc2)COC[C@H](NC(=O)c2nccc(OC)c2OCOC(C)=O)C(=O)O[C@H]1C ?
> 70%

* * *

Entries annotated with measured pest or weed control at 121.5 g/ha
- System: Mycosphaerella graminicola; Anamorph: Septoria tritici
- measurementDescription: Fungicidal activity: Leaf Blotch of Wheat (SEPTTR)
- Assay type: in vivo
- appliedConditions: Zymoseptoria tritici, 24 h; Low Volume (121.5 g/H), 1 Day Protectant, wheat leaf blotch; read-out: SEPTTR 1 DP disease control

Given the compound CCOCC(=O)OCOc1c(OC)ccnc1C(=O)N[C@H]1COC[C@H](Cc2ccccc2)[C@@H](CCc2ccccc2)[C@H](C)OC1=O [compound 32] , what is its reported pest or weed control at 121.5 g/ha?
> 70%

* * *

- Tested on: Mycosphaerella graminicola; Anamorph: Septoria tritici
- measurementDescription: Fungicidal activity: Leaf Blotch of Wheat (SEPTTR)
- Type: in vivo
- appliedConditions: Zymoseptoria tritici, 24 h; High Volume (100 ppm), 1 Day Protectant, wheat leaf blotch; read-out: SEPTTR 1 DP disease control
- Protocol: Evaluation of Fungicidal Activity: Leaf Blotch of Wheat (Mycosphaerella graminicola; Anamorph: Septoria tritici; Bayer Code […]) Technical grades of materials were dissolved in acetone, which were then mixed with nine volumes of water containing 110 ppm Triton X-100. The fungicide solutions were applied onto wheat seedlings using an automated booth sprayer to run-off. […] All fungicides were evaluated using the aforementioned method for their activity vs. all target diseases, unless stated otherwise. […]
Listing of recorded pest or weed control at 100 µg/mL by entry.

GET /values?readout=pest or weed control at 100 µg/mL&item= COc1ccnc(C(=O)N[C@H]2COC[C@H](CCCc3ccccc3)[C@@H](CCc3ccccc3)[C@H](C)OC2=O)c1O [compound 139]
< 70%

---
May I ask what pest or weed control at 100 µg/mL has been recorded for COc1ccnc(C(=O)N[C@H]2COC[C@H](CCc3ccccc3)[C@@H](CCc3ccccc3)[C@H](C)OC2=O)c1OCOC(C)=O [compound 4] ?
> 70%

Another molecule to check: COc1ccnc(C(=O)N[C@H]2COC[C@H](Cc3ccccc3)[C@@H](CCc3ccccc3)[C@H](C)OC2=O)c1O [compound 128]
> 70%

* * *

// values below are reported pest or weed control at 100 µg/mL
- Test system: Mycosphaerella graminicola; Anamorph: Septoria tritici
- measurementDescription: Fungicidal activity: Leaf Blotch of Wheat (SEPTTR)
- Type: in vivo
- appliedConditions: Zymoseptoria tritici, 72 h; High Volume (100 ppm), 3 Day Curative, wheat leaf blotch; read-out: SEPTTR 3 DC disease control

# pest or weed control at 100 µg/mL lookup, item CCC[C@H]1COC[C@H](NC(=O)c2nccc(OC)c2O)C(=O)O[C@@H](C)[C@@H]1c1ccccc1
> 70%

// next record COc1ccnc(C(=O)N[C@H]2COC[C@H](CC3CCCCC3)[C@@H](CC3CCCCC3)[C@H](C)OC2=O)c1OCOC(C)=O
< 70%

What do you have for CCCC[C@@H]1[C@@H](Cc2ccccc2)COC[C@H](NC(=O)c2nccc(OC)c2OCOC(=O)C(C)C)C(=O)O[C@H]1C ?
> 70%

Others:
Record request: pest or weed control at 100 µg/mL value, item COc1ccnc(C(=O)N[C@H]2COC[C@H](CC3CC3)[C@@H](Cc3ccccc3)[C@H](C)OC2=O)c1O
< 70%

* * *

Listed next: entries and their corresponding pest or weed control at 121.5 g/ha.
- Test system: Mycosphaerella graminicola; Anamorph: Septoria tritici
- measurementDescription: Fungicidal activity: Leaf Blotch of Wheat (SEPTTR)
- Assay type: in vivo
- appliedConditions: Zymoseptoria tritici, 72 h; Low Volume (121.5 g/H), 3 Day Curative, wheat leaf blotch; read-out: SEPTTR 3 DC disease control

Reference set, count: 2
Report pest or weed control at 121.5 g/ha for COc1ccnc(C(=O)N[C@H]2COC[C@H](Cc3ccccc3)[C@@H](Cc3ccc(OC(F)(F)F)cc3)[C@H](C)OC2=O)c1OCOC(C)=O [compound 49] please.
< 70%

Now the same for CCOCC(=O)OCOc1c(OC)ccnc1C(=O)N[C@H]1COC[C@H](Cc2ccccc2)[C@@H](c2ccccc2)[C@H](C)OC1=O [compound 51]
< 70%

Continuing:
pest or weed control at 121.5 g/ha lookup needed for CCCC[C@@H]1[C@@H](Cc2ccccc2)COC[C@H](NC(=O)c2nccc(OC)c2OC(C)=O)C(=O)O[C@H]1C [compound 15] , thanks.
> 70%

Cool, now COc1ccnc(C(=O)N[C@H]2COC[C@H](Cc3ccccc3)[C@@H](CC(C)C)[C@H](C)OC2=O)c1OCOC(=O)C(C)C [compound 20]
> 70%

Same for COc1ccnc(C(=O)N[C@H]2COC[C@H](Cc3ccc(Cl)cc3)[C@@H](CC(C)C)[C@H](C)OC2=O)c1OC(C)=O [compound 75]
> 70%

Proceed to COc1ccnc(C(=O)N[C@H]2COC[C@H](CCCc3ccccc3)[C@@H](CCc3ccccc3)[C@H](C)OC2=O)c1OCOC(C)=O [compound 67]
< 70%

* * *

- Test system: Mycosphaerella graminicola; Anamorph: Septoria tritici
- measurementDescription: Fungicidal activity: Leaf Blotch of Wheat (SEPTTR)
- Type: in vivo
- appliedConditions: Zymoseptoria tritici, 72 h; High Volume (100 ppm), 3 Day Curative, wheat leaf blotch; read-out: SEPTTR 3 DC disease control
Below is a list of entries, each paired with its recorded pest or weed control at 100 µg/mL value.

Known pest or weed control at 100 µg/mL results, listed for orientation:
Give the measured pest or weed control at 100 µg/mL of CCCC[C@@H]1[C@@H](Cc2ccccc2)COC[C@H](NC(=O)c2nccc(OC)c2OC(C)=O)C(=O)O[C@H]1C .
> 70%

Item: COc1ccnc(C(=O)N[C@H]2COC[C@H](CCCc3ccccc3)[C@@H](CCc3ccccc3)[C@H](C)OC2=O)c1O
< 70%

Now the compound CCC[C@H]1COC[C@H](NC(=O)c2nccc(OC)c2O)C(=O)O[C@@H](C)[C@@H]1CC(C)C
< 70%

Next:
Requested read-out: pest or weed control at 100 µg/mL. Entry: CCC[C@H]1COC[C@H](NC(=O)c2nccc(OC)c2O)C(=O)O[C@@H](C)[C@@H]1Cc1ccc(F)cc1
> 70%

What about COc1ccnc(C(=O)N[C@H]2COC[C@H](Cc3ccc(Cl)cc3)[C@@H](Cc3ccc(OC(F)(F)F)cc3)[C@H](C)OC2=O)c1O ?
> 70%

What do we get for COc1ccnc(C(=O)N[C@H]2COC[C@H](Cc3ccccc3)[C@@H](Cc3ccccc3)[C@@H](C)OC2=O)c1O ?
< 70%

Lookup COc1ccnc(C(=O)N[C@H]2COC[C@H](Cc3ccccc3)[C@@H](CC(C)C)[C@H](C)OC2=O)c1O
< 70%

Repeat with COc1ccnc(C(=O)N[C@H]2COC[C@@H]3CCCC[C@H]3[C@H](C)OC2=O)c1OCOC(C)=O
< 70%

// next record COc1ccnc(C(=O)N[C@H]2COC[C@H](Cc3ccccc3)[C@@H](CCc3ccccc3)[C@H](C)OC2=O)c1O
> 70%

Next up: COc1ccnc(C(=O)N[C@H]2COC[C@H](Cc3ccc(Cl)cc3)[C@@H](Cc3ccccc3)[C@H](C)OC2=O)c1O
< 70%

And for COc1ccnc(C(=O)N[C@H]2COC[C@H](Cc3ccccc3)[C@@H](Cc3ccccc3)[C@@H](C)OC2=O)c1OCOC(C)=O ?
< 70%

Similarly, COc1ccnc(C(=O)N[C@H]2COC[C@H](Cc3ccccc3)[C@@H](c3ccccc3)[C@H](C)OC2=O)c1O ?
> 70%

Cool, now COc1ccnc(C(=O)N[C@H]2COC[C@H](CCc3ccccc3)[C@@H](CCc3ccccc3)[C@H](C)OC2=O)c1O
> 70%

Now the compound COc1ccnc(C(=O)N[C@H]2COC[C@H](CCC(C)C)[C@@H](CCc3ccccc3)[C@H](C)OC2=O)c1O
> 70%
